Assign inhibition at 1 µM to each entry below.
# Assayed Target: human recombinant histamine H1 receptor (Homo sapiens)
# Construct: expressed in transfected cells; host or cells: CHO cells
# Sequence (P35367 whole entry): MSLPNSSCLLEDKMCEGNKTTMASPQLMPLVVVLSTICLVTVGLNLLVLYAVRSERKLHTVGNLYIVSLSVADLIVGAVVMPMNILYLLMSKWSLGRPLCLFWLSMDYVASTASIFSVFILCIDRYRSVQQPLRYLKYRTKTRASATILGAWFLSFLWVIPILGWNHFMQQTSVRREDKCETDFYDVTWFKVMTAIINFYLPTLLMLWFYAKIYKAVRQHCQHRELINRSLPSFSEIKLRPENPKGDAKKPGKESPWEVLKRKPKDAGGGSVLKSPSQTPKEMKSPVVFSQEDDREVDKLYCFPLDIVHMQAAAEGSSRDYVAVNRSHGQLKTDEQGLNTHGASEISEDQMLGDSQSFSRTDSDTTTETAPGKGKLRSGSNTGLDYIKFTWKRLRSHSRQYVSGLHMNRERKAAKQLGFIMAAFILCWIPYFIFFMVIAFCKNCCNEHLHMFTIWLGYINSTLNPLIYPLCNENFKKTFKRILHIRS
# Experimental Protocol: Histamine H1 radioligand binding ([3H]Pyrilamine)
# Particulars: compound at 1 μM; inhibition of specific [3H]Pyrilamine binding; read-out: Histamine Binding (1 μM) H1, Percentage Inhibition
The reply should contain only the number, in %.

Give the measured inhibition at 1 µM of `C/C(=C/n1c2c(c3ccccc31)[C@@H]1CC[C@H](C2)N1C)c1ccc(F)cc1` .
17

Any idea what inhibition at 1 µM was measured for CN1C2CCC1c1c(n(CCC#N)c3ccc(Cl)cc13)C2 (stereo not drawn) ?
72

Which inhibition at 1 µM value belongs to Cc1ccc(C#Cn2c3c(c4cc(Cl)ccc42)C2CCC(C3)N2C)cn1 (stereo not drawn) ?
57

Which inhibition at 1 µM value belongs to Cc1cncc(CCn2c3c(c4cc(C)ccc42)C2CCC(C3)N2C)c1 (stereo not drawn) ?
93

Sample CN1C2CCC1c1c(n(CCc3ccc(Cl)cc3)c3ccc(Cl)cc13)C2 (stereo not drawn) — what was its inhibition at 1 µM?
98

Could you share which inhibition at 1 µM value was measured for Cc1ncc(CCn2c3c(c4cc(Cl)ccc42)C2CCC(C3)N2C)cn1 (stereo not drawn) ?
44

Fill blank: measured inhibition at 1 µM of the compound COc1ccc(/C(C)=C/n2c3c(c4cc(Cl)ccc42)C2CCC(C3)N2C)cc1F (stereo not drawn) is ____.
69

Please give the measured inhibition at 1 µM for this compound: C/C(=C\n1c2c(c3cc(C)ccc31)C1CCC(C2)N1C)c1ccc(Cl)cc1Cl (stereo not drawn)
72

Item Cc1ccc2c(c1)c1c(n2CCc2ccccc2)CC2CCC1N2C (stereo not drawn) has what recorded inhibition at 1 µM?
99

What value of inhibition at 1 µM has been recorded for this entry: Cc1ccc2c(c1)c1c(n2CCc2cnc(C)nc2)CC2CCC1N2C (stereo not drawn)
51

Name the recorded inhibition at 1 µM for CN1C2CCC1c1c(n(CCCc3ccc(C(F)(F)F)nc3)c3ccc(Cl)cc13)C2 (stereo not drawn) .
78

So what's the measured inhibition at 1 µM for this one? `CN1[C@@H]2CC[C@H]1c1c(n(CCc3ccc(F)cc3)c3ccc(F)cc13)C2`
92

Quick one: inhibition at 1 µM for CN1C2CCC1c1c(n(CCC(=O)N3CCOCC3)c3ccc(Cl)cc13)C2 (stereo not drawn) ?
28

Which inhibition at 1 µM reading was recorded for the compound CN1C2CCC1c1c(n(CCc3cccnc3)c3ccc(Cl)cc13)C2 (stereo not drawn) ?
94

What does the record list as inhibition at 1 µM for COc1ccc(C(C)(O)Cn2c3c(c4cc(Cl)ccc42)C2CCC(C3)N2C)cc1F (stereo not drawn) ?
86

For the compound C/C(=C\n1c2c(c3cc(C)ccc31)C1CCC(C2)N1C)c1ccccc1F (stereo not drawn) , what inhibition at 1 µM is on record?
65

Give its inhibition at 1 µM value. Item: CN1C2CCC1c1c(n(CCC(=O)N3CCNC(=O)C3)c3ccc(Cl)cc13)C2 (stereo not drawn)
12

// query inhibition at 1 µM value for entry Cc1ccc2c(c1)c1c(n2CC(O)c2ccc(C)nc2)CC2CCC1N2C (stereo not drawn)
51

Consider the compound shown here: CN1C2CCC1c1c(n(C#Cc3ccc(Cl)cc3)c3ccc(Cl)cc13)C2 (stereo not drawn) What is its recorded inhibition at 1 µM?
34

What value of inhibition at 1 µM has been recorded for this entry: `Cc1ccc(CCn2c3c(c4ccccc42)[C@@H]2CC[C@H](C3)N2C)cn1`
52

Recorded inhibition at 1 µM for CN1C2CCC1c1c(n(CC(=O)N3CCCC3)c3ccc(Cl)cc13)C2 (stereo not drawn) , please?
21
